meta.source: patent US20130158063A1

target: PPARγ (Mus musculus, UniProt P37238); construct: expressed in transfected cells; host or cells: 293T cells; test: PPAR reporter assay in 293T cells, PPARγ (agonist GW7845); type: cell-based; conditions: HEK-293T; 10 μM compound; 1 μM agonist GW7845; 293T cells; read-out: Reporter assay (% inhibition), γ
Sequence (P37238 whole entry): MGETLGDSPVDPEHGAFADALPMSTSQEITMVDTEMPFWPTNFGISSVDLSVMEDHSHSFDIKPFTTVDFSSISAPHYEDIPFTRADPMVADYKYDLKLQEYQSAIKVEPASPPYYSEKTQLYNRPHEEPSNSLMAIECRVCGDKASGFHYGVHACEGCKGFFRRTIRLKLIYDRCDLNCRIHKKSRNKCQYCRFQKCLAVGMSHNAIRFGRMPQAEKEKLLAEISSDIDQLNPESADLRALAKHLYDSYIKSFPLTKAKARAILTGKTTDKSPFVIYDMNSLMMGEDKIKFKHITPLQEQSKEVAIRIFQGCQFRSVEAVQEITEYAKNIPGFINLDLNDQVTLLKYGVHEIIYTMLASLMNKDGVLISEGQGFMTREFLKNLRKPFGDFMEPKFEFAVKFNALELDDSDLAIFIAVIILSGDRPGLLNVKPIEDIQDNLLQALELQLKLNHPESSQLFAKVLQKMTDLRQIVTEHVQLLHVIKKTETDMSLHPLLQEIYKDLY
Label met when inhibition at 10 µM is at or above 30%; anything below gets not met.

>  <molecule>
CC(C)(C)c1ccc(S(=O)(=O)N(NC(=O)c2ccc(Cl)nc2)C(=O)c2ccc(Cl)nc2)cc1 [YL-1-83]

>  <cat>
not met

$$$$
>  <molecule>
COc1ccc(S(=O)(=O)N(C(=O)c2ccc(Cl)cc2)N(C(=O)c2ccc(Cl)cc2)C(=O)c2ccc(Cl)cc2)cc1 [YL-1-38-1]

>  <cat>
met

$$$$
>  <molecule>
CC(C)(C)c1ccc(S(=O)(=O)N(C(=O)c2ccc(Cl)cc2)N(C(=O)c2ccc(Cl)cc2)C(=O)c2ccc(Cl)cc2)cc1 [YL-1-68-1]

>  <cat>
met

$$$$
>  <molecule>
CC(=O)Oc1ccc(C(=O)NN(C(=O)c2ccc(OC(C)=O)cc2)S(=O)(=O)c2ccc(C(C)(C)C)cc2)cc1 [YL-1-87]

>  <cat>
not met

$$$$
>  <molecule>
O=C1NN(c2cccc(F)c2)C(=O)/C1=C\c1ccc(-c2ccc(S(=O)(=O)Nc3ncco3)cc2)o1 [Sd-107-10]

>  <cat>
met

$$$$
>  <molecule>
CC(C)(C)c1ccc(C(=O)N(NC(=O)c2ccc(Cl)cc2)S(=O)(=O)c2ccc(C(C)(C)C)cc2)cc1 [YL-1-80]

>  <cat>
met

$$$$
>  <molecule>
CC(C)(C)c1ccc(S(=O)(=O)N(NC(=O)c2ccc(Cl)cc2)C(=O)c2ccc(Cl)cc2)cc1 [YL-1-68-2]

>  <cat>
not met

$$$$
>  <molecule>
CC(C)(C)c1ccc(S(=O)(=O)N(NC(=O)c2ccc(O)cc2)C(=O)c2ccc(O)cc2)cc1 [YL-1-88]

>  <cat>
not met

$$$$
>  <molecule>
CC(C)(C)c1ccc(C(=O)N(N)S(=O)(=O)c2ccc(C(C)(C)C)cc2)cc1 [YL-1-69]

>  <cat>
not met

$$$$
